system: HLA-A*0202 (Human)
test.name: competition with 125I-labeled probe peptide for purified HLA, gel filtration
assay.setup: remark: other sources report otherwise
experimental.readout: pIC50
One number for each entry, as −log10 of the molar value.

// pIC50 lookup, key: VLLDYQGMLPV (modifications not checked) [HBV ENV 259 peptide 1147.14 (…)] 7.70
